The reported numbers originate from the supplement of paper PMC10567573.

B1: TRIM39 (parent)
chain: ERDFPCPVCRKTSRYRSLRPNRQL

- Variants of: B1
- RUN_DESCRIPTION: protein stability index of a GFP-peptide fusion (GPS, HEK-293T) (PSI 1-6); higher = more stable;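 note: lentivirally expressed fusions sorted by FACS into six bins by GFP to DsRed ratio, PSI derived from sequencing read proportions per bin multiplied by bin number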
- RECORDED_CONDITIONS: c terminus: a fixed tail appended
MEASURED_PROPERTY: protein stability index
Answer as a number with no unit attached.

Solved cases below.
Q23A: 1.33
R14F: 1.96
R19I: 2.1
T12A: 2.64
K11S: 2.25
R19G: 1.89

### Prompt Using the record for P5A , report its protein stability index.
### Response 1.74
